- Tested on: EE transcriptome
- Measurement description: Genome-wide microarray transcript profiling of esophageal biopsies, EE patients vs normal individuals (EE transcriptome)
- Condition details: transcript level in esophageal biopsies of EE patients compared to normal individuals (NL); Affymetrix Human Genome U133 plus 2; p<0.01; >1 up-regulated, <1 down-regulated

| Molecule | Fold Change |
| --- | --- |
| SEQ_ID_#909 (nucleic acid, listed as Homo sapiens) DNA: TGCTTTTGTTGTTGTTTTTAATTTAAAAAGACAAAATTGTTCGCCTTGTATAGAAGTAGATACAGCTTAGAGAGCCAAGGTAACAAGAGGGGAAAAGTTTGTGTTGTCTGGTACTTTTGAGGGAGTCAGAAGCCTAAAGGGAGGCTCTAACTCATGATTCTCAGAAGACAACTGTTGTCAACAGTTCAAATGAGAACTGAACGGCCACACTCCTGCAGCTGAAAGGAGTCAATGCGAGCTGAGTTGCTCTCACCGAACAGAGTGCGTTCCCCGGGGAGGCAGGGAAAGGCCGGCTTGCACCTGCTCTGTCACCCAGCTCCACTCTTAGGACAGAAGAGGTCTGGAAAATGTCTGGG | 0.639 |
| SEQ_ID_#840 (nucleic acid, listed as Homo sapiens) DNA: TACCACACATCTTCTTTATTAATGCATTGACAATCAGTGAAGACAATGAAAACCCACCACTTTTGTCCGTGAACTGAGAAAGAAAATGGCAATGTCATATGGCATTAATGATGCATGAGATCTATGGGTGTAGTGTCACGTCTAGGCGTGTAGTAATCCAGTCTTCGGCCTTACTCCAGGGAGAAAGATTCAGCTTTGTTACTTTCCAGTCACTCTCTCCCGTAACACAGCACCAAGACCGTTTAAAGCACTTAATTAATTCACTTCAGCTTCGCTGGAGAGGTCTCAGGGTTCCCGAGACTCCATTACATAATATCTTTCACAAAGTCTATTCCCAGCTCGAATGGAAGATGGATTCTCATCCAGTGTGCGG | 0.665 |
| SEQ_ID_#901 (nucleic acid, listed as Homo sapiens, chemistry not fully specified; the letters are possibly those of the target site) DNA: CTCCTCGCCCTCCCCACCGACATCATGCTCCAGTTCCTGCTTGGATTTACACTGGGCAACGTGGTTGGAATGTATCTGGCTCAGAACTATGAT | 0.643 |
| SEQ_ID_#906 (nucleic acid, listed as Homo sapiens) DNA: TGCTTTTGTTGTTGTTTTTAATTTAAAAAGACAAAATTGTTCGCCTTGTATAGAAGTAGATACAGCTTAGAGAGCCAAGGTAACAAGAGGGGAAAAGTTTGTGTTGTCTGGTACTTTTGAGGGAGTCAGAAGCCTAAAGGGAGGCTCTAACTCATGATTCTCAGAAGACAACTGTTGTCAACAGTTCAAATGAGAACTGAACGGCCACACTCCTGCAGCTGAAAGGAGTCAATGCGAGCTGAGTTGCTCTCACCGAACAGAGTGCGTTCCCCGGGGAGGCAGGGAAAGGCCGGCTTGCACCTGCTCTGTCACCCAGCTCCACTCTTAGGACAGAAGAGGTCTGGAAAATGTCTGGG | 0.64 |
